The origin of these recorded values is ChEMBL document CHEMBL3102806.

UI values, listed per item
- Tested on: Rattus norvegicus
- method-description: Ulcerogenic activity in albino rat carrageenan-induced paw edema model assessed as ulcer index at 0.28 mmol/kg, po (reference value: 0.60 +/- 0.05)
- Format: toxicity, organism-based
- measurement-setup: in vivo
Give the figure by itself; no unit, no explanation.

compound	endpoint-result
COc1cc(-c2nnc(SCC(=O)Nc3ccc(C(C)=O)cc3)n2-c2ccccc2)cc(OC)c1OC	4.38
CCn1c(SCC(=O)Nc2ccc(/C(C)=N/O)cc2)nnc1-c1cc(OC)c(OC)c(OC)c1	0.83
COc1cc(-c2nnc(SCC(=O)Nc3ccc(/C(C)=N/O)cc3)n2-c2ccccc2)cc(OC)c1OC	2.21
CCn1c(SCC(=O)Nc2ccc(/C(C)=N/O)cc2)nnc1-c1ccccc1	1.18

Quick one: UI of COc1ccc(-c2nnc(SCC(=O)Nc3ccc(/C(C)=N/O)cc3)n2-c2ccccc2)cc1OC ?
1.11

Name the reported UI value associated with the compound C=CCn1c(SCC(=O)Nc2ccc(C(C)=O)cc2)nnc1-c1ccccc1
9.3

Return reported UI; argument: COc1ccc2c(c1)c(CC(=O)O)c(C)n2C(=O)c1ccc(Cl)cc1 [INDOMETHACIN]
63.34

Which UI is reported for this compound? C=CCn1c(SCC(=O)Nc2ccc(C(C)=O)cc2)nnc1-c1cc(OC)c(OC)c(OC)c1
6.49

Could you tell me which UI is on file for CCn1c(SCC(=O)Nc2ccc(/C(C)=N/O)cc2)nnc1-c1ccc(OC)cc1 ?
1.04

Dear colleague, I am looking for the recorded UI of the following compound: CCn1c(SCC(=O)Nc2ccc(C(C)=O)cc2)nnc1-c1cc(OC)c(OC)c(OC)c1
3.34

Which UI is listed for COc1ccc(-c2nnc(SCC(=O)Nc3ccc(/C(C)=N/O)cc3)n2-c2ccccc2)cc1 ?
1.61

Fill blank: measured UI of the compound C=CCn1c(SCC(=O)Nc2ccc(/C(C)=N/O)cc2)nnc1-c1ccc(OC)c(OC)c1 is ____.
0.25

Query (compound): COc1ccc(-c2nnc(SCC(=O)Nc3ccc(C(C)=O)cc3)n2-c2ccccc2)cc1OC ; field requested: UI
8.64

###

- Tested on: Rattus norvegicus
- method-description: Antiinflammatory activity in albino rat assessed as inhibition of carrageenan-induced paw edema at 0.28 mmol/kg, po administered 30 mins prior to carrageenan-challenge measured after 1 hr relative to control
- Format: functional
A collection of compounds and their measured inhibition in vivo at 280 µmol/kg
Kindly format the answer as number then unit.

Sample records with inhibition in vivo at 280 µmol/kg:
chemical-smiles	inhibition in vivo at 280 µmol/kg
COc1ccc(-c2nnc(SCC(=O)Nc3ccc(/C(C)=N/O)cc3)n2-c2ccccc2)cc1	45%
CCn1c(SCC(=O)Nc2ccc(/C(C)=N/O)cc2)nnc1-c1cc(OC)c(OC)c(OC)c1	29%
CCn1c(SCC(=O)Nc2ccc(C(C)=O)cc2)nnc1-c1ccc(OC)cc1	51%
CCn1c(SCC(=O)Nc2ccc(/C(C)=N/O)cc2)nnc1-c1ccccc1	54%
C=CCn1c(SCC(=O)Nc2ccc(C(C)=O)cc2)nnc1-c1ccc(OC)c(OC)c1	56%
C=CCn1c(SCC(=O)Nc2ccc(/C(C)=N/O)cc2)nnc1-c1ccccc1	61%

Turning now to a further record.
Item under review: CC(=O)c1ccc(NC(=O)CSc2nnc(-c3ccccc3)n2-c2ccccc2)cc1 . Reported inhibition in vivo at 280 µmol/kg?
41%
